Please provide measured T/C for the entries that follow.
Test system: CD2F1 mice, L1210 leukemia ip, survival T/C
measurement_protocol: NCI In Vivo Anticancer Drug Screen. Data for tumor model L1210 Leukemia (intraperitoneal) in CD2F1 (CDF1) mice
experimental_parameters: endpoint: mean survival time; dose: 200.0 mg/kg/injection; schedule: Q01DX009 (ip); vehicle: Klucel (hydroxypropylcellulose) (HPC); higher = longer survival
Toxic doses and inconclusive results are not listed.

Examples from the recorded data:
{"molecule": "CC1(C)C/C(=C\\c2ccc([N+](=O)[O-])cc2)C(=O)c2ccccc21", "T/C": "93 % of control"}
{"molecule": "O=c1[nH]c(=O)n(C2CC(O)C(CO)O2)cc1Br (configuration not stated)", "T/C": "112 % of control"}
{"molecule": "Brc1ccc2[nH]c3c(c2c1)CSc1ccccc1-3", "T/C": "108 % of control"}

I would be grateful if you could provide T/C for each of the following entries.
1. O=C(O)CCSc1ccc2c(c1)CCCC2
2. NP(=O)(OCCC(=O)OCc1ccccc1)N(CCCl)CCCl (configuration not stated)
3. NNS(=O)(=O)c1ccc(Oc2ccc(S(=O)(=O)NN)cc2)cc1
4. CC(=O)OC1C(OC(C)=O)C(OC(C)=O)C2OC(C)(C)OC2C1OC(C)=O (configuration not stated)
5. Nc1c(Cl)c(Cl)nc(C(=O)O)c1Cl

stdout:
98 % of control
94 % of control
108 % of control
93 % of control
100 % of control

Hey, quick one: what's T/C for each of these?
1. CCCCCCCCCCCCCCCCOc1ccc(C(=O)OC)cc1NS(=O)(=O)c1ccc(C(=O)O)cc1
2. Nc1ncn[nH]1
3. O=Nc1c(-c2ccccc2)n(O)[n+]([O-])c1-c1ccccc1

stdout:
1: 95 % of control; 2: 95 % of control; 3: 97 % of control

stdin: # return recorded T/C for entry CC1(C)CC2(OC2c2ccc([N+](=O)[O-])cc2)C(=O)c2ccccc21 (configuration not stated)
stdout: 100 % of control

* * *

Test system: CD2F1 mice, L1210 leukemia ip, survival T/C
measurement_protocol: NCI In Vivo Anticancer Drug Screen. Data for tumor model L1210 Leukemia (intraperitoneal) in CD2F1 (CDF1) mice
experimental_parameters: endpoint: median survival time; dose: 25.0 mg/kg/injection; schedule: Q04DX003 (ip); vehicle: saline
Toxic doses and inconclusive results are not listed. How the source made its calls: active means survival T/C of 150% or more; inactive means T/C below 125% in these data.
The categories you may choose from are active, inactive

{"compound": "O=C(O)CC(=O)CC(=O)O.[NH-]C1CCCCC1[NH-].[Pt+2]", "label_class": "inactive"}
{"compound": "O=CC(O)C(O)C(O)C(O)C(=O)O.[NH-]C1CCCCC1[NH-].[Pt+2] (centres undefined)", "label_class": "inactive"}
{"compound": "NC(=N\\O)/C(N)=N/O.[Cl][Pd][Cl]", "label_class": "inactive"}

Let's switch to this compound now.
stdin: Each compound tested received a call. Report the one for "O=C(O)c1ccc(C(=O)O)c(C(=O)O)c1.[NH-]C1CCCCC1[NH-].[Pt+2]" .
stdout: active

* * *

Tested on: CD2F1 mice, L1210 leukemia ip, survival T/C
measurement_protocol: NCI In Vivo Anticancer Drug Screen. Data for tumor model L1210 Leukemia (intraperitoneal) in CD2F1 (CDF1) mice
experimental_parameters: endpoint: mean survival time; dose: 400.0 mg/kg/injection; schedule: Q04DX003 (ip); vehicle: saline with Tween-80; higher = longer survival
Inconclusive results and toxic doses are left out.
value_kind: T/C

Check out these entries, answers already filled in.
{"compound": "O=C(Cc1ccccc1)c1ccc(O)cc1", "endpoint_value": "111 % of control"}
{"compound": "C1=CC2c3ccc4ccccc4c3C(c3ccccc3)C2C=C1 (stereo unspecified)", "endpoint_value": "102 % of control"}
{"compound": "Cc1cccc(C)c1NC(=O)c1ccccc1C(=O)O", "endpoint_value": "96 % of control"}
{"compound": "N#CC(/C=C/c1ccccc1)Nc1ccccc1CO (stereo unspecified)", "endpoint_value": "117 % of control"}
{"compound": "COC(=O)C(C(=O)OC)c1ccc(C)c(OC)c1", "endpoint_value": "102 % of control"}

For every record below, what is its T/C?
1. CCc1cc(C)cc(OC(=O)Nc2cccc(Cl)c2)c1
2. O=C(NCCCCOc1ccc([N+](=O)[O-])cc1Cl)NC1CCCCC1
3. COC(=N)C/C=C/CC(=N)OC
4. CCCCCCCC(=O)Nc1ccc(-n2c(=O)cc(C)n2C)cc1

stdout:
1: 92 % of control; 2: 91 % of control; 3: 98 % of control; 4: 95 % of control

# return T/C for each item in the list
1. CCc1ccc(NC(=O)c2cccc(Cl)c2)cc1
2. CC(CC(O)(c1ccccc1)c1ccccc1)C(F)(F)F (stereo unspecified)
3. Cc1cccc(S(=O)(=O)N(C)C)c1
4. CC(C)CCCC(C)C1CCC2C3CCC45CC4C(=O)CCC5(C)C3CCC12C (stereo unspecified)
5. O=[N+]([O-])c1ccc2nc(CC(O)(C(F)(F)F)C(F)(F)F)ccc2c1
6. C/C(CCC(CC(=O)O)C(C)C)=N\NC(N)=O (stereo unspecified)
7. NC(=O)C(Cl)(Cl)C(Cl)(Cl)C(Cl)(Cl)Cl

stdout:
["98 % of control", "97 % of control", "96 % of control", "95 % of control", "113 % of control", "103 % of control", "94 % of control"]

Quick request: T/C for each listed item, please.
1. CNC(=O)Sc1nnnc2ccccc12
2. O=C1c2ccccc2S(=O)(=O)N1CCBr
3. CC1(C)C2C(Br)C3OC(=O)C(C2C(=O)O)C31 (stereo unspecified)
4. CC(Cl)CN(CC(C)Cl)c1ccc2c(c1)Cc1cc([N+](=O)[O-])ccc1-2 (stereo unspecified)
5. [Br][Sn]([Br])([c]1cccc2ccccc12)[c]1cccc2ccccc12
6. Nc1ccc(CSc2ccccc2)cc1F
7. CCOC1(c2ccccc2)c2ccccc2C(C)(C)c2ccccc21

stdout:
["98 % of control", "110 % of control", "91 % of control", "96 % of control", "97 % of control", "108 % of control", "92 % of control"]

* * *

What T/C was measured for each of the following?
Test system: CD2F1 mice, L1210 leukemia ip, survival T/C
measurement_protocol: NCI In Vivo Anticancer Drug Screen. Data for tumor model L1210 Leukemia (intraperitoneal) in CD2F1 (CDF1) mice
experimental_parameters: endpoint: mean survival time; dose: 200.0 mg/kg/injection; schedule: Q01DX009 (ip); vehicle: other; higher = longer survival
Description: The antitumor activity of compounds was measured in mice bearing transplantable tumors. Survival or tumor size were measured and the results are expressed as the measurement made in the treated group (T) divided by the measurement made in the vehicle treated control group (C). The tumor model used in this assay is L1210 Leukemia (intraperitoneal) in CD2F1 (CDF1) mice
Inconclusive results and toxic doses are left out.

# annotated cases, reported T/C shown
{"sample_smiles": "OC(Cc1[nH]c2ccccc2c1C(O)(C(F)(F)F)C(F)(F)F)(C(F)(F)F)C(F)(F)F", "endpoint_value": "110 % of control"}
{"sample_smiles": "CCOC(=O)Nc1cccc([N+](=O)[O-])c1", "endpoint_value": "113 % of control"}
{"sample_smiles": "CCCCCCCCCC(O)CCCCCCCCC", "endpoint_value": "91 % of control"}
{"sample_smiles": "CCOP(=S)(N1CC1)N1CC1", "endpoint_value": "100 % of control"}

Let's switch to this compound now.
stdin: Specify T/C for "O=C(CC(O)(C(F)(F)F)C(F)(F)F)c1ccc(F)cc1" , system CD2F1 mice, L1210 leukemia ip, survival T/C.
stdout: 98 % of control

* * *

What T/C was measured for each of the following?
System: CD2F1 mice, L1210 leukemia ip, survival T/C
measurement_protocol: NCI In Vivo Anticancer Drug Screen. Data for tumor model L1210 Leukemia (intraperitoneal) in CD2F1 (CDF1) mice
experimental_parameters: endpoint: mean survival time; dose: 200.0 mg/kg/injection; schedule: Q04DX003 (ip); vehicle: other; higher = longer survival
Inconclusive results and toxic doses are left out.

{"sample_smiles": "O=c1[nH]cc(Cl)cc1Cl", "target": "CD2F1 mice, L1210 leukemia ip, survival T/C", "T/C": "103 % of control"}
{"sample_smiles": "C1=CC=CN(c2ccccc2)C=C1", "target": "CD2F1 mice, L1210 leukemia ip, survival T/C", "T/C": "95 % of control"}
{"sample_smiles": "CN(N=O)C(=O)N[C@@H](C=O)[C@@H](O)[C@H](O)[C@H](O)CO", "target": "CD2F1 mice, L1210 leukemia ip, survival T/C", "T/C": "120 % of control"}
{"sample_smiles": "CCOC(=O)Nc1ccccc1[N+](=O)[O-]", "target": "CD2F1 mice, L1210 leukemia ip, survival T/C", "T/C": "102 % of control"}

Could you now consider this next molecule?
stdin: Given "CCCC(=O)c1c(C)cc(C)cc1C" , respond with its T/C.
stdout: 104 % of control
